We begin with a simple list: items and their reported IC50.
Biological target: recombinant human baculovirus-expressed GST-tagged FASN (Homo sapiens, UniProt P49327)
Construct: GST
Sequence (P49327 whole entry): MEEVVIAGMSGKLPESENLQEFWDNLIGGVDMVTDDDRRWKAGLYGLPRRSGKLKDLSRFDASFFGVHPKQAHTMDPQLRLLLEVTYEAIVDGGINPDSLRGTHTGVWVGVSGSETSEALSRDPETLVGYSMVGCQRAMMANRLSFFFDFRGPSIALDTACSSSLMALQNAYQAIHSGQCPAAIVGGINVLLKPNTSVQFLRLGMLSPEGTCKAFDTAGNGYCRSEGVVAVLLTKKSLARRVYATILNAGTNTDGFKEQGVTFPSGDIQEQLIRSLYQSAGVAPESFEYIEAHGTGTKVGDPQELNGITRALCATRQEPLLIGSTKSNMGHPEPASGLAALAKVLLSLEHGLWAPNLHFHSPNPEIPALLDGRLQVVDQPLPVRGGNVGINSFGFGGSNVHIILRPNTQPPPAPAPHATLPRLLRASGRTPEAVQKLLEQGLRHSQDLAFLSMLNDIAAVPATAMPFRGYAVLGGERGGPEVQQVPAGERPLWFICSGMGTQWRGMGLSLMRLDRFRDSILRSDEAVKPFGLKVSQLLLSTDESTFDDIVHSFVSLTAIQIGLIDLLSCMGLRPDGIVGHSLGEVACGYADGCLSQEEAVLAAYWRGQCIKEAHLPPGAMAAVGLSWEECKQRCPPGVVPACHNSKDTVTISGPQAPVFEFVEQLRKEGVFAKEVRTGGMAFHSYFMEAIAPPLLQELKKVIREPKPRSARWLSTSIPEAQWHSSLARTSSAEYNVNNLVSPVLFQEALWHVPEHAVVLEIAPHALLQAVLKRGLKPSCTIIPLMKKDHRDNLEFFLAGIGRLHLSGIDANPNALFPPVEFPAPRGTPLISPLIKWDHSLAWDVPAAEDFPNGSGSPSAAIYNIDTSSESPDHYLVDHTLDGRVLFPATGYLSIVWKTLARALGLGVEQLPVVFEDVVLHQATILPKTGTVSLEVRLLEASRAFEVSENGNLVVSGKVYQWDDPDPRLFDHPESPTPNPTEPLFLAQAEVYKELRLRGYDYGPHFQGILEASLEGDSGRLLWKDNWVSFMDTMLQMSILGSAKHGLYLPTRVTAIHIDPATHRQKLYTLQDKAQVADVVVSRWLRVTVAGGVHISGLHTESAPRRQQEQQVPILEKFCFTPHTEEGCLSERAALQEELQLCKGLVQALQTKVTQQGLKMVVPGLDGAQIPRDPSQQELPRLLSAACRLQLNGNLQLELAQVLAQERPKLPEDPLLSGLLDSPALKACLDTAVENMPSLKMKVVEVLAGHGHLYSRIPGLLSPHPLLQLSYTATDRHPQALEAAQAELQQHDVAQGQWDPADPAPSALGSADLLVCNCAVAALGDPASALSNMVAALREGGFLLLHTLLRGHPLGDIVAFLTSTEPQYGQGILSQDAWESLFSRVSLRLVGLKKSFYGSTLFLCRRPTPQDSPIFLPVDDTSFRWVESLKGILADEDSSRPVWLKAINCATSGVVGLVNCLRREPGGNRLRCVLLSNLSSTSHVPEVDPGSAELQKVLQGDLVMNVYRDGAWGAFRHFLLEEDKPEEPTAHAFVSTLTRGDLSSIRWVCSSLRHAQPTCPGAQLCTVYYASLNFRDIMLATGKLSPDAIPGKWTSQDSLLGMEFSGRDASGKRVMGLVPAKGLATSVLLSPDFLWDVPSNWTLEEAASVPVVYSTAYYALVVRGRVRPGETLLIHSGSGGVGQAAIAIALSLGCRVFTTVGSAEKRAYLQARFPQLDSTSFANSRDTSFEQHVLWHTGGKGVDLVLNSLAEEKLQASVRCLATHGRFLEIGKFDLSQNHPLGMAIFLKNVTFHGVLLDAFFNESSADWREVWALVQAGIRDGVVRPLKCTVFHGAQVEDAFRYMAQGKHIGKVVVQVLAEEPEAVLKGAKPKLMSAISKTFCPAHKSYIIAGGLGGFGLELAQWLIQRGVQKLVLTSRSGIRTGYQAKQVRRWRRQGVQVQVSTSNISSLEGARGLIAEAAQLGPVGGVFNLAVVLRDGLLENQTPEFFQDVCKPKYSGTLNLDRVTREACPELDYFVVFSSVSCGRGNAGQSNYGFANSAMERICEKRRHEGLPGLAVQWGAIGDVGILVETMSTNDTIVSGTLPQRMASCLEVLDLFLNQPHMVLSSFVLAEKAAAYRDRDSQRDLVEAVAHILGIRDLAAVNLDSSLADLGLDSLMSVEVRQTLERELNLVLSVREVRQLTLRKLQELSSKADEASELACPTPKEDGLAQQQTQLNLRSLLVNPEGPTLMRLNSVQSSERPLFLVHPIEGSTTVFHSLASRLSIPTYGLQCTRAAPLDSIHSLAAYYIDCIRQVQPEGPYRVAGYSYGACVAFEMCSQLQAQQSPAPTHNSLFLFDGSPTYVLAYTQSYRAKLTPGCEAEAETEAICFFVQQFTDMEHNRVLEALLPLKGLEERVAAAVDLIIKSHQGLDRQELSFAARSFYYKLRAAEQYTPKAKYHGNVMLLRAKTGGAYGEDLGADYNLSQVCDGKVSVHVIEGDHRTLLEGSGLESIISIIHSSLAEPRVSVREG
Assay: FASN enzyme activity assay, fluorescence-based detection of CoA with CPM
Assay type: biochemical
Conditions: 5 nM FASN, 150 μM NADPH, 10 μM acetyl-CoA, 25 μM malonyl-CoA, 90 minutes incubation; read-out: IC50 data for Additional Compounds of Formulae I-V(a): Activity
Counter-ions that a name gives are not always drawn.

COCCNC(=O)N1CCC(Oc2ccc(-c3ccc4cccnc4c3C)cc2)CC1 [Example 542, HCl]; 1 to 99 nM
CCONC(=O)N1CCC(Oc2ccc(-c3ccc4c(C)nccc4c3)cc2)CC1 [Example 586]; 1000 to 10000 nM
CCNC(=O)N1CCC(Oc2ccc(-c3ccn4ccnc4c3C)cc2)CC1 [Example 629, HCl]; 1000 to 10000 nM
Cc1c(-c2ccc(OC3CCN(C(=O)C4(N)CCC4)CC3)cc2)ccc2cccnc12 [Example 627]; 1000 to 10000 nM
Cc1c(-c2ccc(OC3CCN(C(=O)N4CCCCO4)CC3)cc2)ccc2cccnc12 [Example 558]; 1000 to 10000 nM
CCCNC(=O)N1CCC(Oc2ccc(-c3ccc4nccn4c3Cl)cc2)CC1 [Example 566]; 1 to 99 nM
Cc1c(-c2ccc(OC3CCN(C(=O)NOC(C)C)CC3)cc2)ccc2nccn12 [Example 600]; 100 to 999 nM

Now for the compound whose IC50 we want.
# get_value(readout='IC50', item= Cc1c(-c2ccc(OC3CCN(C(=O)NO)CC3)cc2)ccc2nccn12 [Example 613] )
1000 to 10000 nM

* * *

Molecular target: recombinant human baculovirus-expressed GST-tagged FASN (Homo sapiens, UniProt P49327)
Construct: GST
Experiment: FASN enzyme activity assay, fluorescence-based detection of CoA with CPM
Assay type: biochemical
Details: 5 nM FASN, 150 μM NADPH, 10 μM acetyl-CoA, 25 μM malonyl-CoA, 90 minutes incubation; read-out: IC50 data for Additional Compounds of Formulae I-V(a): Activity
Where a name gives a salt, the structure may show the parent alone.
The reader will find reported IC50 values listed item by item below.

Cc1c(-c2ccc(OC3CCN(C(=O)NC4CCC4)CC3)cc2)ccc2cccnc12 [Example 552, HCl]; 1000 to 10000 nM

Return reported IC50; argument: Cc1c(-c2ccc(OC3CCN(C(=O)COC(C)C)CC3)cc2)ccc2cccnc12 [Example 624, HCl]
1000 to 10000 nM

Item "CC(C)CNC(=O)N1CCC(Oc2ccc(-c3ccc4nccn4c3Cl)cc2)CC1" has what recorded IC50?
100 to 999 nM

I am curious: what IC50 value has been reported for "Cc1c(-c2ccc(OC3CCN(C(=O)[C@@H](C)N)CC3)cc2)ccc2cccnc12" ?
1000 to 10000 nM

Query (compound): "CNC1(C(=O)N2CCC(Oc3ccc(-c4ccc5cccnc5c4C)cc3)CC2)CC1" ; field requested: IC50
1000 to 10000 nM

Using the record for "Cc1c(-c2ccc(OC3CCN(C(=O)CN(C)C)CC3)cc2)ccc2cccnc12" , report its IC50.
1000 to 10000 nM

IC50 for "CC(=O)OCC(=O)N1CCC(Oc2ccc(-c3ccc4cccnc4c3C)cc2)CC1" ?
1 to 99 nM

Look up IC50: Cc1c(-c2ccc(OC3CCN(C(=O)NCCN4CCOCC4)CC3)cc2)ccc2cccnc12 [Example 531, HCl]
1000 to 10000 nM
